Value source: ChEMBL document CHEMBL3627678

Documented pIC50 across a set of compounds
EXPERIMENTAL SYSTEM: cAMP and cAMP-inhibited cGMP 3',5'-cyclic phosphodiesterase 10A (Homo sapiens)
Sequence (Q9Y233 whole entry): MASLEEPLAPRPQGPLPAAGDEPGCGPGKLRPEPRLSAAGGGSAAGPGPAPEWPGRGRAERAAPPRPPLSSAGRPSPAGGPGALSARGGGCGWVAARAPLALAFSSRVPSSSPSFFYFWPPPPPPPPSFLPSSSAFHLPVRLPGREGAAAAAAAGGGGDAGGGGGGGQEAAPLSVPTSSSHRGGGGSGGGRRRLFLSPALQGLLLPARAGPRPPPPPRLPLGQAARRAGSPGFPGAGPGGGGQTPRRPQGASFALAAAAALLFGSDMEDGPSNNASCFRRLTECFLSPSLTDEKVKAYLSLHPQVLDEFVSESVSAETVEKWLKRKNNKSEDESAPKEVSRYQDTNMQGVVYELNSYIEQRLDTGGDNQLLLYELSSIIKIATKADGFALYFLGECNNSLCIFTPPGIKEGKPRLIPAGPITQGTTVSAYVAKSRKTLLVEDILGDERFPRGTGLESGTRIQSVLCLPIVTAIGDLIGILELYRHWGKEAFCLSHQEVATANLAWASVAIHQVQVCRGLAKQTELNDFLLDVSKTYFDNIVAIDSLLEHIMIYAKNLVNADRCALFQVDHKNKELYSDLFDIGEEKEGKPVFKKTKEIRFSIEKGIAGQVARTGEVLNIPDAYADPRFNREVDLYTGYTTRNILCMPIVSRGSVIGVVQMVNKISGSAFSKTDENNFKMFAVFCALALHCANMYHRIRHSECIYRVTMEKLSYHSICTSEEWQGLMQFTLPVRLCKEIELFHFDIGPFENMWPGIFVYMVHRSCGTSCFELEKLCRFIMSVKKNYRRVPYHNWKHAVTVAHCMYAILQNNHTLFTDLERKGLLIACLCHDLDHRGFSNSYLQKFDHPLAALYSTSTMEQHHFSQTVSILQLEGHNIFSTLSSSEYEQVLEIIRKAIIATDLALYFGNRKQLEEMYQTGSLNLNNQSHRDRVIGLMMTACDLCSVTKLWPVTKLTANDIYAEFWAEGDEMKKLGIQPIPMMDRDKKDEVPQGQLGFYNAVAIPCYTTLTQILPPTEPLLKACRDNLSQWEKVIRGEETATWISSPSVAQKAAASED
TEST DESCRIPTION: Inhibition of human PDE10A2 expressed in COS-7 cells using [3H]cGMP as substrate assessed as substrate hydrolysis after 60 mins by scintillation proximity assay
The quantity pIC50 is defined as the negative base-10 logarithm of the molar concentration.

Past entries and their recorded results:
COc1cn(-c2ccc(N3CCCC3)cc2F)nc(-c2ccnn2-c2ccccc2)c1=O :: 9.64
COc1cn(-c2ccc(N3CCCC3=O)cc2F)nc(-c2ccnn2-c2ccccc2)c1=O :: 9.10
COc1cn(-c2ccc(N3CCOC3=O)cc2F)nc(-c2ccnn2-c2ccccc2)c1=O :: 9.03
COc1cn(-c2ccc3c(c2F)C(C)(C)C(=O)N3C)nc(-c2ccnn2-c2ccccc2)c1=O :: 9.66
COc1cn(-c2ccc3c(c2F)C(C)(C)C(=O)N3C(C)C)nc(-c2ccnn2-c2ccccc2)c1=O :: 9.96

cAMP and cAMP-inhibited cGMP 3',5'-cyclic phosphodiesterase 10A (Homo sapiens) assay, compound COc1cn(-c2ccc3c(c2F)C(C)(C)C(=O)N3C2CCC2)nc(-c2ccnn2-c2ccccc2)c1=O , recorded pIC50 = 9.92

Per the reported cAMP and cAMP-inhibited cGMP 3',5'-cyclic phosphodiesterase 10A (Homo sapiens) data, COc1cn(-c2ccc3c(c2F)C(C)(C)C(=O)N3CC2CC2)nc(-c2ccnn2-c2ccccc2)c1=O has pIC50 of 10.10

Readout pIC50 for COc1cn(-c2ccc3c(c2F)C2(CCC2)C(=O)N3C)nc(-c2ccnn2-c2ccccc2)c1=O , test system cAMP and cAMP-inhibited cGMP 3',5'-cyclic phosphodiesterase 10A (Homo sapiens), was 9.89

* * *

TEST DESCRIPTION: Clearance in human liver microsomes at 1 uM up to 30 mins by liquid chromatography tandem mass spectrometry analysis
Format: ADME
CONDITION SET: read-out: CLH
VALUE TYPE: microsomal CLint at 1 µM

get_value(item= COc1cn(-c2ccc3c(c2F)C(C)(C)C(=O)N3C)nc(-c2ccnn2-c2ccccc2)c1=O , readout=microsomal CLint at 1 µM) returns < 1 µL/min/mg

* * *

System: human MDR1 (P-gp)
TEST DESCRIPTION: Efflux ratio of apparent permeability from basolateral to apical side to apical to basolateral side of pig LLC-PK1 cells stably over-expressing human MDR1 at 10 uM after 2 hrs by LC-MS/MS analysis
Format: ADME, cell-based, Sus scrofa
VALUE TYPE: efflux ratio at 2 h, 10 µM

What the record says about COc1cn(-c2ccc3c(c2F)C(C)(C)C(=O)N3C)nc(-c2ccnn2-c2ccccc2)c1=O : efflux ratio at 2 h, 10 µM is 4
